Entries and their melting point

{"Compound": "O=C1CCSc2sccc21", "melting point": "61 to 62 °C"}
{"Compound": "CCOC(=S)c1sc(Cl)nc1C(F)(F)F", "melting point": "28 to 32 °C"}
{"Compound": "Nc1ncn(C2OC(CO)C(O)C2O)c2nc(=O)sc1-2 (stereo unspecified)", "melting point": "132 to 134 °C"}
{"Compound": "CC1COc2c(F)c(Cl)cc3c(=O)c(C(=O)O)cn1c23 (stereo unspecified)", "melting point": "> 300 °C"}
{"Compound": "CC1(C)Oc2cc(Cl)c(F)cc2[C@@H](Br)[C@@H]1O (relative stereo)", "melting point": "97 to 99 °C"}
{"Compound": "Nc1ncc2ncn(CCC(CO)CO)c2n1", "melting point": "154 °C"}
{"Compound": "Nc1ccc(N=Nc2ccc(N)c(C(F)(F)F)c2)c(C(F)(F)F)c1", "melting point": "136 °C"}
{"Compound": "O=C(Nc1cccc(-c2cnc(-c3cccc(NC(=O)c4ccccn4)c3)[nH]2)c1)c1ccccn1", "melting point": "208 to 210 °C"}
{"Compound": "O=C(C=CC=Cc1ccccc1)C=Cc1ccc([N+](=O)[O-])cc1", "melting point": "168 to 170 °C"}
{"Compound": "CCOc1ccc(-c2nc(C)c(C(=O)O)s2)cc1Cl", "melting point": "219 to 220 °C"}
{"Compound": "CC1COCc2nc3c(N)nc4ccc(OCc5ccccc5)cc4c3n21 (stereo unspecified)", "melting point": "100 to 120 °C"}
{"Compound": "OC1(c2ccc(Cl)cc2)c2ccc(Cl)cc2-c2ncncc21 (stereo unspecified)", "melting point": "194 to 196 °C"}
{"Compound": "Nc1ncc(-c2noc(-c3cnn4c(C(F)(F)F)cc(-c5ccc(Cl)cc5)nc34)n2)cn1", "melting point": "268 °C"}
{"Compound": "Cc1cc(-c2c(F)cc3c(=O)c(C(=O)O)cn(C4CC4)c3c2F)cc(C)n1", "melting point": "246 to 248 °C"}
{"Compound": "CCOC(=O)c1ccc(OCCCCCCc2cccc(OCc3ccccc3)c2OCc2ccccc2)cc1", "melting point": "63 to 65 °C"}
{"Compound": "O=C(Cc1ccc(Cl)c(Cl)c1)N(O)[C@H](CN1CCCC1)c1ccccc1", "melting point": "118 to 120 °C"}
{"Compound": "CC1(C)Oc2ccc(Cl)cc2[C@@H](n2ccccc2=O)[C@@H]1O (relative stereo)", "melting point": "250 °C"}
{"Compound": "Cc1c(-c2ccc(OC(C)C)cc2)n(Cc2ccc(OCCN3CCCCCC3)cc2)c2ccc(O)cc12", "melting point": "120 to 125 °C"}
{"Compound": "COc1ccc(O)c2c1C1(CCC2)OCCO1", "melting point": "139 to 140 °C"}
{"Compound": "O=C(ON=C(Br)Br)c1ccc(Cl)cc1", "melting point": "93 to 97 °C"}
{"Compound": "CCCCCCCNC(=O)N(C)c1cccc(-c2cc(F)c(CCC(=O)O)c(F)c2)c1", "melting point": "86 °C"}

====

melting point for assorted molecules

{"Molecule": "O=c1[nH]c2ccc(C(O)CCN3CCC(Cc4ccccc4)CC3)cc2[nH]1 (stereo not given)", "melting point": "240 to 244 °C"}
{"Molecule": "N#Cc1nn(-c2c(Cl)cc(C(F)(F)F)cc2Cl)cc1C1C=CCCCC1 (stereo not given)", "melting point": "106 to 107 °C"}
{"Molecule": "CCc1ccc(-c2ccc(C(=O)Nc3ccc4cc(CN5CCCC5)cnc4c3C)c(F)c2)cc1", "melting point": "178 to 179 °C"}
{"Molecule": "N#Cc1cccc(-c2nnc(-c3cccnc3)o2)c1", "melting point": "170 to 174 °C"}
{"Molecule": "O=C1Nc2cc(Cl)ccc2Oc2cscc21", "melting point": "263 to 265 °C"}

====

Here the recorded melting point is given for each entry.

{"Molecule": "CCc1cc(C(=O)O)c(Nc2ccccc2[N+](=O)[O-])s1", "melting point": "189 to 191 °C"}
{"Molecule": "CC(C)(C)C(=O)CC(C(=O)C(C)(C)C)n1cncn1 (stereo unspecified)", "melting point": "66 to 69 °C"}
{"Molecule": "Oc1cc(C(F)(F)F)nn1-c1ccccc1", "melting point": "190 to 192 °C"}
{"Molecule": "CC(C)(C)OC(=O)N1CCN(C(=O)C(F)(F)F)CC1", "melting point": "66 to 68 °C"}
{"Molecule": "CCN(CC)C(=O)c1cc2cc(Br)ccc2o1", "melting point": "79 to 81 °C"}
{"Molecule": "NCCSc1c(S(=O)(=O)c2ccccc2)c2ccccc2n1Cc1ccccc1", "melting point": "149 to 150 °C"}
{"Molecule": "CC(C)C(=O)NC(c1ccc(C=O)cc1)C(F)(F)F (stereo unspecified)", "melting point": "132 to 133 °C"}
{"Molecule": "Cc1cc(C(=O)c2ccc(F)c(C)c2)ccc1F", "melting point": "128 to 130 °C"}
{"Molecule": "COC(=O)c1cncc(OCc2ccc(OCc3nc(-c4ccccc4)oc3C)cc2)c1", "melting point": "138 to 139 °C"}
{"Molecule": "O=C(O)C(=O)c1cnsc1", "melting point": "145 to 148 °C"}
{"Molecule": "O=C(O)C1Cc2ccc(Cl)cc2NC1=O (stereo unspecified)", "melting point": "158 to 160 °C"}

====

# key: entry, value: melting point

{"Compound": "CC(C)N(CCCC(=NNC(N)=S)c1ccccc1)C(=O)C1CCCCC1", "melting point": "112 to 114 °C"}
{"Compound": "COc1ccc(CC2(C)CN(C(c3ccccc3)c3ccccc3)CCN2C(C)=O)cc1OC (stereo unspecified)", "melting point": "116 °C"}
{"Compound": "CCOC(=O)C(Br)C(=O)Nc1ccccc1 (racemic)", "melting point": "90 °C"}
{"Compound": "C#CCOc1nsc(SC(F)F)c1C#N", "melting point": "83 to 84 °C"}
{"Compound": "O=C1CCCCC1c1ccccc1F (stereo unspecified)", "melting point": "47 to 49 °C"}
{"Compound": "CCOC1=Nc2nc(C(C)(C)C)[nH]c2C2=N[C@H](Cc3ccccc3)CN12", "melting point": "220 to 222 °C"}
{"Compound": "CN1c2ccccc2N=C(N2CCN(CCO)CC2)c2cscc21", "melting point": "192 to 193 °C"}
{"Compound": "CN(C)C(=O)N1CC(Sc2ccc(Cl)cc2)C1", "melting point": "96 to 97 °C"}
{"Compound": "CC(=O)c1c(-c2cc(C)cs2)sc(-c2ccncc2)c1C", "melting point": "106 to 108 °C"}
{"Compound": "O=c1[nH]c2ccc(Cl)cc2n1CCO", "melting point": "160 °C"}
{"Compound": "CCOC(=O)c1ccc2c(c1)sc1cc(N(C)C)ccc12", "melting point": "160 to 162 °C"}

====

# melting point listing for each entry below
Readout Label: melting point

{"Compound": "CNS(=O)(=O)c1cnc2c(OC)c(OC)c(OC)cc2c1O", "Result": "254 to 255 °C"}
{"Compound": "Cc1cccc(-n2c(CF)nc3ccc([N+](=O)[O-])cc3c2=O)c1C", "Result": "178 to 180 °C"}
{"Compound": "CCCOCCOC(=O)C1=C(C)NC(C)=C(/C=C/S(=O)(=O)NC(C)C)C1c1cccc([N+](=O)[O-])c1 (stereo not given)", "Result": "152 to 154 °C"}
{"Compound": "O=P1(c2ccc(Oc3ccccc3)cc2)c2ccccc2CN1c1ccccc1 (stereo not given)", "Result": "207 to 208 °C"}
{"Compound": "Cc1cccc(Cc2c[nH]cn2)c1", "Result": "127 to 130 °C"}
{"Compound": "CSC1C(=O)Nc2c(Oc3c(Cl)cccc3Cl)cccc21 (stereo not given)", "Result": "> 230 °C"}
{"Compound": "Cc1nc(N)c2nc(C)n(CCOCCCc3ccccc3)c2c1C", "Result": "118 to 119 °C"}
{"Compound": "NS(=O)(=O)NCC1COc2ccccc2O1 (stereo not given)", "Result": "97.5 to 98.5 °C"}
{"Compound": "N#CC1=CSCC1Nc1c(Cl)cccc1Cl (stereo not given)", "Result": "170 to 173 °C"}
{"Compound": "COc1ccc(-c2cn(C)cc(-c3cccc(C(F)(F)F)c3)c2=O)cc1OC", "Result": "148 to 150 °C"}

====

Listed here: items and their measured melting point.
Readout Label: melting point

{"Chem Smiles": "Cc1cc(Nc2ccnc(Nc3ccc(S(=O)(=O)N(C)C4CCN(CCS(C)(=O)=O)CC4)cc3)n2)ccc1F", "Result": "114 °C"}
{"Chem Smiles": "C=C(CC1(CC(=C)c2ccc(C(=O)Nc3ccccc3N)cc2)C(=O)N(C)C(=O)N(C)C1=O)c1ccc(C(=O)Nc2ccccc2N)cc1", "Result": "161 to 163 °C"}
{"Chem Smiles": "CSc1ccc2c(=O)n([C@H](C)[C@](O)(Cn3cncn3)c3ccc(F)cc3F)cnc2c1", "Result": "152 to 153 °C"}
{"Chem Smiles": "COc1cc2c(cc1Nc1ncc(Cl)c(Nc3ccccc3S(C)(=O)=O)n1)CCN(CC(N)=O)CC2", "Result": "111 to 123 °C"}

Just for reference, a melting point compilation (Tetko et al.; mined from patent text by program, amines drawn as free bases though some values may be those of a salt) is where these values come from.
